Test: Metabolic stability in mouse kidney assessed as parent compound remaining measured after 4 hrs by UPLC-MS analysis
Format: ADME, tissue-based
Conditions: read-out: Stability
Numbered stars: 1 amine (or outer) side, 2 acyl side, 3 side chain; on linkers, the order of the positions; unused ones are H or OH. Square brackets hold non-standard residues; d marks the D form. Peptide text beside a SMILES is read from it. * marks the point of attachment. Ava(2S,3R-(OH)2,4S-OMe) = CO[C@@H](CN[*:1])[C@H](O)[C@H](O)C(=O)[*:2]; dHis(βS-OH,π-Me) = Cn1cncc1[C@@H](O)[C@@H](N)C(=O)O; Butanoyl(2R-OH,3S-OH) = C[C@H](O)[C@@H](O)C(=O)*; Val(3-OH) = CC(C)(O)[C@H](N)C(=O)O; NMeF = CN[C@@H](Cc1ccccc1)C(=O)O
Readout name: remaining at 4 h (%)

molecule=CO[C@@H](CNC(=O)[C@H](NC(=O)[C@H](O)[C@H](C)O)[C@H](O)c1cncn1C)[C@H](O)[C@H](O)C(=O)N(C)[C@@H](Cc1ccc(F)cc1)C(=O)NCC(=O)N[C@H](C(=O)N[C@@H](CO)C(=O)N[C@H](C(=O)N[C@H](C(=O)N[C@@H](CCC(=O)NCc1cc(=O)c(O)cn1O)C(=O)O)C(C)(C)C)C(C)(C)O)C(C)(C)O endpoint_unit=% assay_result=101
molecule="CO[C@@H](CNC(=O)[C@H](NC(=O)[C@H](O)[C@H](C)O)[C@H](O)c1cncn1C)[C@H](O)[C@H](O)C(=O)N(C)[C@@H](Cc1ccccc1)C(=O)NCC(=O)N[C@H](C(=O)N[C@@H](CO)C(=O)N[C@H](C(=O)N[C@@H](CC(C)C)C(=O)N[C@@H](CO)C(=O)O)C(C)(C)O)C(C)(C)O ({Butanoyl(2R-OH,3S-OH)}-[dHis(βS-OH,π-Me)][Ava(2S,3R-(OH)2,4S-OMe)][NMeF]G[Val(3-OH)]S[Val(3-OH)]LS-OH)" endpoint_unit=% assay_result=6
molecule=CO[C@@H](CNC(=O)[C@H](NC(=O)[C@H](O)[C@H](C)O)[C@H](O)c1cncn1C)[C@H](O)[C@H](O)C(=O)N(C)[C@@H](Cc1ccc(F)cc1)C(=O)NCC(=O)N[C@H](C(=O)N[C@@H](CO)C(=O)N[C@H](C(=O)N[C@H](C(=O)N[C@@H](CO)C(=O)NCc1cccc(O)c1O)C(C)(C)C)C(C)(C)O)C(C)(C)O endpoint_unit=% assay_result=0

====

Test: Metabolic stability in mouse lung assessed as parent compound remaining measured after 1 hrs by UPLC-MS analysis
Format: ADME, tissue-based
Conditions: mouse lung, read-out: Stability
Numbered stars: 1 amine (or outer) side, 2 acyl side, 3 side chain; on linkers, the order of the positions; unused ones are H or OH. Square brackets hold non-standard residues; d marks the D form. Peptide text beside a SMILES is read from it. * marks the point of attachment. Ava(2S,3R-(OH)2,4S-OMe) = CO[C@@H](CN[*:1])[C@H](O)[C@H](O)C(=O)[*:2]; dHis(βS-OH,π-Me) = Cn1cncc1[C@@H](O)[C@@H](N)C(=O)O; Butanoyl(2R-OH,3S-OH) = C[C@H](O)[C@@H](O)C(=O)*; Val(3-OH) = CC(C)(O)[C@H](N)C(=O)O; NMeF = CN[C@@H](Cc1ccccc1)C(=O)O
remaining at 1 h by entry:
Readout name: remaining at 1 h (%)

compound=CC[C@H](C)[C@H](NC(=O)[C@@H](NC(=O)[C@H](CO)NC(=O)[C@@H](NC(=O)CNC(=O)[C@H](Cc1ccccc1)N(C)C(=O)[C@@H](O)[C@@H](O)[C@H](CNC(=O)[C@H](NC(=O)[C@H](O)[C@H](C)O)[C@H](O)c1cncn1C)OC)C(C)(C)O)C(C)(C)O)C(=O)N[C@@H](CO)C(=O)O endpoint_unit=% assay_result=35
compound=CO[C@@H](CNC(=O)[C@H](NC(=O)[C@H](O)[C@H](C)O)[C@H](O)c1cncn1C)[C@H](O)[C@H](O)C(=O)N(C)[C@@H](Cc1ccccc1)C(=O)N[C@@H](C)C(=O)N[C@H](C(=O)N[C@@H](CO)C(=O)N[C@H](C(=O)N[C@H](C(=O)N[C@@H](CO)C(=O)NCc1cc(=O)c(O)cn1O)C(C)(C)C)C(C)(C)O)C(C)(C)O endpoint_unit=% assay_result=91
compound=CO[C@@H](CNC(=O)[C@H](NC(=O)[C@H](O)[C@H](C)O)[C@H](O)c1cncn1C)[C@H](O)[C@H](O)C(=O)N(C)[C@@H](Cc1ccc(F)cc1)C(=O)NCC(=O)N[C@H](C(=O)N[C@@H](CO)C(=O)N[C@H](C(=O)N[C@H](C(=O)N[C@@H](CO)C(=O)NCc1cc(=O)c(O)cn1O)C(C)(C)C)C(C)(C)O)C(C)(C)O endpoint_unit=% assay_result=81
compound=CO[C@@H](CNC(=O)[C@H](NC(=O)[C@H](O)[C@H](C)O)[C@H](O)c1cncn1C)[C@H](O)[C@H](O)C(=O)N(C)[C@@H](Cc1ccc(F)cc1)C(=O)NCC(=O)N[C@H](C(=O)N[C@@H](CO)C(=O)N[C@H](C(=O)N[C@H](C(=O)N[C@@H](CO)C(=O)N[C@@H](CN)C(=O)NCc1cc(=O)c(O)cn1O)C(C)(C)C)C(C)(C)O)C(C)(C)O endpoint_unit=% assay_result=96
compound=CO[C@@H](CNC(=O)[C@H](NC(=O)[C@H](O)[C@H](C)O)[C@H](O)c1cncn1C)[C@H](O)[C@H](O)C(=O)N(C)[C@@H](Cc1ccccc1)C(=O)NCC(=O)N[C@H](C(=O)N[C@@H](CO)C(=O)N[C@H](C(=O)N[C@H](C(=O)N[C@@H](CO)C(=O)NCc1cc(=O)c(O)cn1O)C(C)(C)C)C(C)(C)O)C(C)(C)O endpoint_unit=% assay_result=84
compound=CO[C@@H](CNC(=O)[C@H](NC(=O)[C@H](O)[C@H](C)O)[C@H](O)c1cncn1C)[C@H](O)[C@H](O)C(=O)N(C)[C@@H](Cc1ccccc1)C(=O)NCC(=O)N[C@H](C(=O)N[C@@H](CO)C(=O)N[C@H](C(=O)N[C@H](C(=O)N[C@@H](CCC(=O)NCc1cc(=O)c(O)cn1O)C(=O)O)C(C)(C)C)C(C)(C)O)C(C)(C)O endpoint_unit=% assay_result=100
compound="CO[C@@H](CNC(=O)[C@H](NC(=O)[C@H](O)[C@H](C)O)[C@H](O)c1cncn1C)[C@H](O)[C@H](O)C(=O)N(C)[C@@H](Cc1ccccc1)C(=O)NCC(=O)N[C@H](C(=O)N[C@@H](CO)C(=O)N[C@H](C(=O)N[C@@H](CC(C)C)C(=O)N[C@@H](CO)C(=O)O)C(C)(C)O)C(C)(C)O ({Butanoyl(2R-OH,3S-OH)}-[dHis(βS-OH,π-Me)][Ava(2S,3R-(OH)2,4S-OMe)][NMeF]G[Val(3-OH)]S[Val(3-OH)]LS-OH)" endpoint_unit=% assay_result=7
compound=CO[C@@H](CNC(=O)[C@H](NC(=O)[C@H](O)[C@H](C)O)[C@H](O)c1cncn1C)[C@H](O)[C@H](O)C(=O)N(C)[C@@H](Cc1ccc(F)cc1)C(=O)NCC(=O)N[C@H](C(=O)N[C@@H](CO)C(=O)N[C@H](C(=O)N[C@H](C(=O)N[C@@H](CCC(=O)NCc1cc(=O)c(O)cn1O)C(=O)O)C(C)(C)C)C(C)(C)O)C(C)(C)O endpoint_unit=% assay_result=101
